Note to self: values exactly at 0.5 are condition met. So logP at or above 0.5 is condition met, below is condition not met.

Below, 8 molecules whose answers are already recorded.
- molecule: "COc1cc(OC)cc(OC(=O)CNC(=O)c2ccccc2)c1"
  className: "condition met"
- molecule: "CON(C)C(=O)Nc1cccc(OCc2ccccc2)c1"
  className: "condition met"
- molecule: "CCCCCCNC(=O)NN"
  className: "condition not met"
- molecule: "Cn1ncc2ccccc2c1=O"
  className: "condition met"
- molecule: "CC(C)Cc1nnc(N)o1"
  className: "condition not met"
- molecule: "COn1c(=O)[nH]c(C)c(Br)c1=O"
  className: "condition not met"
- molecule: "NC1CC2CC1c1ccccc12 (stereo not given)"
  className: "condition met"
- molecule: "O=[N+]([O-])C=Cc1cccc(O)c1"
  className: "condition met"

# input for lookup
Data request: Determine whether measured logP meets or exceeds 0.5 for CS(=O)(=O)c1cccc(OCC(=O)O)c1
Data returned: condition not met

----------
Note to self: values exactly at 2 are yes. So logP at or above 2 is yes, below is no.

Below, 8 compounds whose answers are already recorded.
- compound: "FC(F)OC(F)(F)C(F)Cl (stereo not drawn)"
  className: "yes"
- compound: "CCC1=Nc2cc(Cl)ccc2S(=O)(=O)N1"
  className: "no"
- compound: "Cc1ccccc1C(=N)c1ccccc1"
  className: "yes"
- compound: "O=C1CN=C(c2ccccc2[N+](=O)[O-])c2cc([N+](=O)[O-])ccc2N1"
  className: "no"
- compound: "COc1ccccc1NC(=O)C(Cl)Cl"
  className: "yes"
- compound: "O=C1CN=C(c2c(F)cccc2F)c2cc(Cl)ccc2N1"
  className: "yes"
- compound: "Nc1ccc(Cc2cnc(N)nc2N)cc1"
  className: "no"
- compound: "Nc1cnc2ccccc2n1"
  className: "no"

Data request: Determine whether measured logP meets or exceeds 2 for O=[N+]([O-])c1nccn1C1OC(CO)C(O)C(O)C1O (stereo not drawn)
Data returned: no

Data request: Now the compound COC(CN1CCCC1)c1ccccc1 (stereo not drawn)
Data returned: no

Data request: Now the compound CC1=C(C(=O)O)N2C(=O)C(NC(=O)Cc3cccs3)C2SC1 (stereo not drawn)
Data returned: no

Data request: Now the compound CCNP(=O)(OC)Oc1cc(Cl)c(Cl)cc1Cl (stereo not drawn)
Data returned: yes

----------
propertyName: logP
// return a plain number; no unit text

Worked set:
- compound: "CC(=O)Nc1ccccc1C(C)=O"
  logP: 1.5
- compound: "CC(=O)NCCn1c([N+](=O)[O-])cnc1C"
  logP: -0.47
- compound: "CC(=O)C(=Cc1ccc(F)cc1)C(C)=O"
  logP: 1.65

Data request: If you can, please state the reported logP value of CC(=O)C(C#N)=NNc1ccc([N+](=O)[O-])cc1[N+](=O)[O-] .
Data returned: 3.4

Data request: Now the compound CN1CCN(C)C1=Nc1ncc([N+](=O)[O-])s1
Data returned: 0.95

----------
The label 1 (yes) is reserved for logP strictly under 2; 0 (no) covers values equal to or above it.

Below, 2 compounds whose answers are already recorded.
- compound: "CC(C)(C)C(=O)C(C#N)=NNc1cc(Cl)c(Cl)cc1Cl"
  className: "0 (no)"
- compound: "CCC(C)n1nnc2ccccc21 (centres undefined)"
  className: "0 (no)"

# input for lookup
Data request: Does the reported logP of the following compound sit strictly below 2? O=NN(CCCl)C(=O)NC1CCC(=O)NC1=O (centres undefined)
Data returned: 1 (yes)
